Cited source: patent US5731334A

# Test system: 786-0 renal cell carcinoma cells
# procedureSummary: XTT dye binding cytotoxicity assay, 786-0
# Type: cell-based
# particulars: Homo sapiens; 786-0, renal cell carcinoma; 72 h; read-out: IC50
# Lookup of reported pIC50 keyed by entry
Bear in mind: pIC50 is minus log10 of a mol/L concentration; give just that figure.

CC(=O)O[C@H]1C(=O)[C@]2(C)[C@@H](Oc3cccc[n+]3C)C[C@H]3OC[C@@]3(OC(C)=O)[C@H]2[C@H](OC(=O)c2ccccc2)[C@]2(O)C[C@H](OC(=O)[C@H](O)[C@@H](NC(=O)c3ccccc3)c3ccccc3)C(C)=C1C2(C)C    6.34
CC(=O)O[C@H]1C(=O)[C@@]2(C)[C@H]([C@H](OC(=O)c3ccsc3)[C@]3(O)C[C@H](OC(=O)[C@H](Oc4cccc[n+]4C)[C@@H](NC(=O)c4ccccc4)c4ccccc4)C(C)=C1C3(C)C)[C@]1(OC(C)=O)CO[C@@H]1C[C@@H]2O    7.94

Ask: What value of pIC50 has been recorded for this entry: CC(=O)O[C@@]12CO[C@@H]1C[C@H](O)[C@@]1(C)C(=O)[C@H](O)C3=C(C)[C@@H](OC(=O)[C@H](O)[C@@H](NC(=O)OC(C)(C)C)c4ccccc4)C[C@@](O)([C@@H](OC(=O)c4ccccc4)[C@H]21)C3(C)C [Compound 5, reference compound]
Result: 7.38

Ask: What value of pIC50 has been recorded for this entry: `CC(=O)O[C@H]1C(=O)[C@@]2(C)[C@H]([C@H](OC(=O)c3ccccc3)[C@]3(O)C[C@H](OC(=O)[C@H](Oc4cccc[n+]4C)[C@@H](NC(=O)c4ccccc4)c4ccccc4)C(C)=C1C3(C)C)[C@]1(OC(C)=O)CO[C@@H]1C[C@@H]2O`
Result: 7.56

Ask: What value of pIC50 has been recorded for this entry: `CC(=O)O[C@@]12CO[C@@H]1C[C@H](O)[C@@]1(C)C(=O)[C@H](O)C3=C(C)[C@@H](OC(=O)[C@H](Oc4cccc[n+]4C)[C@@H](NC(=O)OC(C)(C)C)c4ccccc4)C[C@@](O)([C@@H](OC(=O)c4ccccc4)[C@H]21)C3(C)C`
Result: 9.25
